Target: endopeptidase 24.11 (Rattus norvegicus)
Sequence (P07861 1-750): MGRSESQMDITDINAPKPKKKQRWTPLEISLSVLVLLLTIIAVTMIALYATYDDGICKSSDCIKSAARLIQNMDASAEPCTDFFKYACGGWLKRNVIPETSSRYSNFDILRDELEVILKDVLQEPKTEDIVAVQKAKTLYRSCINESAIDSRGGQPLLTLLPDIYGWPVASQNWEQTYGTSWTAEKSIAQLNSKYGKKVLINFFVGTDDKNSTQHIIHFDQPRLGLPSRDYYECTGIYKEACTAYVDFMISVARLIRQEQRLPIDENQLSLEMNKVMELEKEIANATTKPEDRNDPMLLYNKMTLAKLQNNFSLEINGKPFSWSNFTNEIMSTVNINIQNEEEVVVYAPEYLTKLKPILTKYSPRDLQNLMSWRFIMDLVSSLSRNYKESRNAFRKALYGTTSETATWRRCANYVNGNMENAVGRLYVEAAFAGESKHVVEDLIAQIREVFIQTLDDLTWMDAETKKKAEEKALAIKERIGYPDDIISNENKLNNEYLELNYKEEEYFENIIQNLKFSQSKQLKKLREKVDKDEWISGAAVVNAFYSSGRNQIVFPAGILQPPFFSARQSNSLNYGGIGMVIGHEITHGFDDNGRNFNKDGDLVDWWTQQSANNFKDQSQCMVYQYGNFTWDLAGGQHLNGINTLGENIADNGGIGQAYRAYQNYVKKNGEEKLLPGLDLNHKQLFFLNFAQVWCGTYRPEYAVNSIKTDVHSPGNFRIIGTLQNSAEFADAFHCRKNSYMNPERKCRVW
pIC50: −log10 of the molar value.
measure: pIC50

>  <compound>
CC(C)CN(CC(CCc1ccccc1)C(=O)O)C(=O)N[C@@H](Cc1ccc(-c2ccccc2)cc1)C(=O)O (mixture of isomers) [Compound No. 5-6]

>  <study_target>
endopeptidase 24.11 (Rattus norvegicus)

>  <test_result>
9.26

$$$$
>  <compound>
CC(C)CN(CC(CCc1ccccc1)C(=O)O)C(=O)N[C@@H](Cc1ccc2ccccc2c1)C(=O)O (mixture of isomers)

>  <study_target>
endopeptidase 24.11 (Rattus norvegicus)

>  <test_result>
8.51

$$$$

a. CC(C)CN(CC(CCc1ccccc1)C(=O)O)C(=O)N[C@@H](Cc1ccc(-c2ccccc2)cc1)C(=O)O (single isomer, unassigned) [Compound No. 9-1]
b. CC(C)CN(CC(OCc1ccccc1)C(=O)O)C(=O)N[C@@H](Cc1ccc(-c2ccccc2)cc1)C(=O)O (single isomer, unassigned)
Enquiry: Hi there! Just curious which has the higher pIC50 between a and b . Label of pick, please.
Return: a
(a: 9.24, b: 9.03)
